- System: firefly luciferase (FLuc) in U87 cells
- assay_name: Luciferase reporter gene silencing assay
- Type: cell-based, human
- test_context: R=40, siFLuc 20 nM
Where no end group is shown, it is not given here.
quantity: Luciferase knock-down at R=40 relative to R=20

[[record]]
substance = "LLRLLRWWWRLLRLL-NH2 [CPP2, LLRLLRWWWRLLRLL]"
measured_on = "firefly luciferase (FLuc) in U87 cells"
obs_value = "slightly increased"

[[record]]
substance = "LLRLLRWWRLLRLL (CPP3)"
measured_on = "firefly luciferase (FLuc) in U87 cells"
obs_value = "slightly increased"

[[record]]
substance = "LLRLLRWWWWRLLRLL [CPP4]"
measured_on = "firefly luciferase (FLuc) in U87 cells"
obs_value = "slightly increased"

[[record]]
substance = "LLWRLWRLLWRLWRLL-NH2 [CPP1, LLWRLWRLLWRLWRLL]"
measured_on = "firefly luciferase (FLuc) in U87 cells"
obs_value = "slightly increased"


====

Reported Mean size (nm) Nb (%) values for a set of substances
- assay_name: Dynamic light scattering and zeta potential of nanoparticles
- Assay type: physicochemical
- test_context: CPP:siRNA R = 20, 5% glucose, number
Enter your answer as a number in nm; do not include the unit.

[[record]]
substance = "LLRLLRWWWWRLLRLL [CPP4]"
quantity = "Mean size (nm) Nb (%)"
unit_abbrev = "nm"
obs_value = 23.6


Exercise: Dear colleague, I am looking for the recorded Mean size (nm) Nb (%) of the following substance: RLLWRLWRLLWRLWRLLR (CPP1-6R)
Solution: 23.3

Exercise: Look up Mean size (nm) Nb (%): RLLRLLRWWWRLLRLLR (CPP2-6R)
Solution: 25.9

====

- assay_name: Dynamic light scattering and zeta potential of nanoparticles
- Type: physicochemical
- test_context: CPP:siRNA R = 20, 5% glucose
quantity: PdI
// return just the number, without any unit appended

Answered cases to consult:
[[record]]
substance = "RLLWRLW-----LWRLLR (RLLWRLWLWRLLR; CPP1-4R)"
obs_value = 0.50

[[record]]
substance = "RLLRLLRWWWRLLRLLR (CPP2-6R)"
obs_value = 0.34


Query substance follows.
Exercise: So what's the measured PdI for this one? RLLWRLWRLLWRLWRLLR (CPP1-6R)
Solution: 0.42

====

- assay_name: Circular dichroism conformational analysis
- Format: physicochemical
- test_context: peptide free in solution, CPP 40 μM; rc = random coiled
quantity: Conformation by circular dichroism, PEPTIDE

[[record]]
substance = "LLRLLRWWRLLRLL (CPP3)"
obs_value = "turn"

[[record]]
substance = "LLRLLRWWWWRLLRLL [CPP4]"
obs_value = "turn"


====

- assay_name: Dynamic light scattering and zeta potential of nanoparticles
- Type: physicochemical
- test_context: CPP:siRNA R = 20, 5% glucose, number
- Method: Dynamic light scattering (DLS) and Zeta potential (ZP). CPPs:siRNA nanoparticles were evaluated with a Zetasizer NanoZS (Malvern) in terms of mean size (Z-average) of the particle distribution and of homogeneity (PdI). Zeta potential was determined in 5% glucose+5 mM of NaCl. All results were obtained from three independent measurements (three runs for each measurement at 25° C.).
Where no end group is shown, it is not given here.
Some substances, each annotated with its measured Mean size (nm) Nb (%).
Please reply with the bare figure in nm and do not write the unit itself.

[[record]]
substance = "LLRLLRWWWRLLRLL-NH2 [CPP2, LLRLLRWWWRLLRLL]"
obs_value = 35.7

[[record]]
substance = "RLLWRLW-----LWRLLR (RLLWRLWLWRLLR; CPP1-4R)"
obs_value = 422


// below: Mean size (nm) Nb (%) requested for another substance
Exercise: Which Mean size (nm) Nb (%) is listed for LLWRLWRLLWRLWRLL-NH2 [CPP1, LLWRLWRLLWRLWRLL] ?
Solution: 26.5

Numbers sourced from patent US11905338B2.
